Origin of the recorded values: ChEMBL document CHEMBL3612045

- ASSAYED_SYSTEM: Voltage-dependent T-type calcium channel subunit alpha-1G (Homo sapiens, UniProt O43497)
- Sequence (O43497 whole entry): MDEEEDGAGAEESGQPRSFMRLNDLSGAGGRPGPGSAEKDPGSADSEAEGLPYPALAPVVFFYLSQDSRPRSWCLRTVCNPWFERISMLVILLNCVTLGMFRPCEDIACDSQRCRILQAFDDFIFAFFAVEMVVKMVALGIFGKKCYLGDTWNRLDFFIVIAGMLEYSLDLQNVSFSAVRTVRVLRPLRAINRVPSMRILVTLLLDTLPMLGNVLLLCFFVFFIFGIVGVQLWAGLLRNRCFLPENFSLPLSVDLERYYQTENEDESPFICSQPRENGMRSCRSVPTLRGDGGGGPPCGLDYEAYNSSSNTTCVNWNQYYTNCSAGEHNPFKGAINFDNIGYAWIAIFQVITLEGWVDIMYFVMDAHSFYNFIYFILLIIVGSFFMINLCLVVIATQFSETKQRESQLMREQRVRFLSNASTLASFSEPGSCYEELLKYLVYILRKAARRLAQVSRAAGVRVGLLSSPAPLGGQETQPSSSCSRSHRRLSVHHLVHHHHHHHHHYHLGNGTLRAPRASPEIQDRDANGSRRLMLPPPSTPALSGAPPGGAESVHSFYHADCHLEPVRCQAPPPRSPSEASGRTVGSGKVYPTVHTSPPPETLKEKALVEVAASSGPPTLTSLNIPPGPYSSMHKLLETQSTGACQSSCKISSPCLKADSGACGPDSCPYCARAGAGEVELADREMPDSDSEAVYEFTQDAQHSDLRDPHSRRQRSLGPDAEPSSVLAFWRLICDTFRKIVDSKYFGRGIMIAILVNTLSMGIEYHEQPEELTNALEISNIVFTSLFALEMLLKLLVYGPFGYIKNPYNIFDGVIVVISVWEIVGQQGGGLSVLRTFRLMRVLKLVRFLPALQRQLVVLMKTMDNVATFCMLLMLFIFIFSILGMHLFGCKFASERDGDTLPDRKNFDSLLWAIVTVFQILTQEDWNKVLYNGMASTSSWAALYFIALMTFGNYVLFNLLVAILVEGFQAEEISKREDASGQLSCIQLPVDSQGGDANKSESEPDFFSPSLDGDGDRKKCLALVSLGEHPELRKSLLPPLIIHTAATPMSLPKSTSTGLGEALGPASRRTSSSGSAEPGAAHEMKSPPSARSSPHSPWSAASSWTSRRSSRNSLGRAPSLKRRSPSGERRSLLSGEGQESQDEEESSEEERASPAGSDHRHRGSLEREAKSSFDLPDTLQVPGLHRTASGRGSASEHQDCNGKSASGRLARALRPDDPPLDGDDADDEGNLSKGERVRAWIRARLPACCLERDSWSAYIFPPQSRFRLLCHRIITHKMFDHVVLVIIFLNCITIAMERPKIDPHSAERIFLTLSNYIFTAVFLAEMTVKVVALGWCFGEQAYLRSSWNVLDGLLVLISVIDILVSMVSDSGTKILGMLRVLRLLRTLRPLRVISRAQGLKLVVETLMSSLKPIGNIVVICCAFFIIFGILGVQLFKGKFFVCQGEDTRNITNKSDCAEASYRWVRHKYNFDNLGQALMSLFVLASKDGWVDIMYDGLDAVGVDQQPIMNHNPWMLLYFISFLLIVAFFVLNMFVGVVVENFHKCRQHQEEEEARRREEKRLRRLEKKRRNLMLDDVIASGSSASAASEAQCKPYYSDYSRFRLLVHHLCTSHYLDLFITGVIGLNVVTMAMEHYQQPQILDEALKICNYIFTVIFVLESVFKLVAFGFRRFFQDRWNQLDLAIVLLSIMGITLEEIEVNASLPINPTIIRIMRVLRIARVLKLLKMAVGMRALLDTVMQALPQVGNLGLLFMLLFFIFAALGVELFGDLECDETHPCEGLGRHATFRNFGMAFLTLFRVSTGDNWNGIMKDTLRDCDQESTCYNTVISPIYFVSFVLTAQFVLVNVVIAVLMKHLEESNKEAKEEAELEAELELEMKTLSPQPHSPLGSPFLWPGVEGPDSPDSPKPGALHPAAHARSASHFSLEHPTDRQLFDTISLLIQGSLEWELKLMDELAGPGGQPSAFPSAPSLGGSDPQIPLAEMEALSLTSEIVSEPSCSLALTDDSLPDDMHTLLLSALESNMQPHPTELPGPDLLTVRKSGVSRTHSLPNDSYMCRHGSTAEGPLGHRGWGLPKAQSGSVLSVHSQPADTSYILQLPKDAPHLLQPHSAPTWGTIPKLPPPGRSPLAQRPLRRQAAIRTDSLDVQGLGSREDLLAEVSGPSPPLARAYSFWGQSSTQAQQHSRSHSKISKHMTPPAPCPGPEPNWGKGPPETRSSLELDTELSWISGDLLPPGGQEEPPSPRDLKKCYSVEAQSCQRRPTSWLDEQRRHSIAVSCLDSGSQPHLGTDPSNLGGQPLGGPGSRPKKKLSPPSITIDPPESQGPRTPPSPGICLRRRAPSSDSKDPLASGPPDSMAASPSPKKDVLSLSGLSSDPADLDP
- EXPERIMENT: Inhibition of Cav3.1 channel (unknown origin) assessed as reduction in peak currents by whole cell patch-clamp method
// reported IC50 for each item listed
Form entry: value (µM) — number only.

Consider the reported IC50 for these molecules:
| COMPOUND_STRUCTURE | ASSAYED_SYSTEM | IC50, µM |
| --- | --- | --- |
| COc1cc(CNCc2ccc(-c3ccc(Cl)cc3)o2)cc(OC)c1OC | Voltage-dependent T-type calcium channel subunit alpha-1G (Homo sapiens, UniProt O43497) | 1.9 |
| N#Cc1ccc(Oc2ccc(-c3ccc(CNc4cccc(C(N)=O)c4)o3)cc2)cc1 | Voltage-dependent T-type calcium channel subunit alpha-1G (Homo sapiens, UniProt O43497) | 7.4 |
| COc1cc(CNCc2ccc(Oc3ccc(C#N)cc3)cc2)cc(OC)c1OC | Voltage-dependent T-type calcium channel subunit alpha-1G (Homo sapiens, UniProt O43497) | 6.4 |

input: // returns reported IC50 for input COc1ccc(-c2ccc(CNCc3cc(OC)c(OC)c(OC)c3)o2)cc1Cl
output: 2.4

input: // returns reported IC50 for input COc1cc(CNCc2c[nH]c3ccc(Cl)cc23)cc(OC)c1OC
output: 5.2

input: // returns reported IC50 for input COc1cc(CNCc2ccc(-c3cccc(C(F)(F)F)c3)o2)cc(OC)c1OC
output: 2.5
